// data source = the RNAGym collection of RNA variant scans (doi:10.1126/science.aae0568)

B1: tRNA (parent)
chain: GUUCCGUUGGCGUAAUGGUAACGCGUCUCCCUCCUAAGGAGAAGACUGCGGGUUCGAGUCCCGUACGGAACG

Variants of: B1
assay remarks: yeast fitness relative to wild type (ratio to wild type); higher = fitter; tRNA-Arg(CCU), competitive growth, 37 C, YPD
Fewer inactive variants are shown than the library holds.
Label class 1 when yeast fitness is at or above 0.7; otherwise label class 0.

Field: example entries. Status: answers known.
entry_sequence="GUUCUGUUGGCGAAAUGGUAACGCGUCUCCCUCCUAAGGAGAAGACUGCGGGUUCGAGUCUCGUACGGAACG [C5U U13A C61U]" class_label="class 0"
entry_sequence="GUUCCGUUGGCGUAAUGGUAAUGCGUCUCCCUCCUAAGGAGAAGACUACGGGUUCGAGUCCCGUACGGCACG [C22U G48A A69C]" class_label="class 1"

Now for a further variant.
Query: Could you verify whether the entry GUUCCGUUGGCGUAUUGGUAACGUCUCUCCCUCCUAUGGCGAAGACUGCGGGCUCGACUCCCGUACGGAACG [A15U C24U G25C A37U A40C U53C G58C] shows yeast fitness of no less than 0.7?
Reply: class 0
